meta.source: patent US20230293517A1

# Tested System: human Adenosine A1 receptor (Homo sapiens (Human), UniProt P30542)
# Sequence (P30542 whole entry): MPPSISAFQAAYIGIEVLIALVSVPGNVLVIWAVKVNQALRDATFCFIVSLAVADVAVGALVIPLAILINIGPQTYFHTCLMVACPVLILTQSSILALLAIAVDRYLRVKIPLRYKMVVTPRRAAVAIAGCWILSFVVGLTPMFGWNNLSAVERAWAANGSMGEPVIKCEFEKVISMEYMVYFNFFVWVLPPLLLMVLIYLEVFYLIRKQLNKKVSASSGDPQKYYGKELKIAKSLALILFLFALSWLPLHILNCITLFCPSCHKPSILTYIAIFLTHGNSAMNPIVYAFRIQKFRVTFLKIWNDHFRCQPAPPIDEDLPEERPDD
# Assay Comment: Adenosine receptor TR-FRET binding assay (A1)
# Test Context: inhibition of binding of 100 nM CA200645, CHO cell membranes
I'd appreciate it if you could supply pKi values for the items below.
One number for each entry, as −log10 of the molar value.

molecule="Cc1cc(-c2sc(NC(=O)N3C[C@H]4OCCN(C)[C@H]4C3)nc2-c2cccc(C#N)c2)cc(C(F)F)n1 (racemic) [Example 6.106]" tested_system="human Adenosine A1 receptor (Homo sapiens (Human), UniProt P30542)" measured_value=6.86
molecule="Cc1cc(-c2sc(NC(=O)N3CCN(C)C(=O)C3)nc2-c2cccc(C#N)c2)cc(C)n1 [Example 4.15]" tested_system="human Adenosine A1 receptor (Homo sapiens (Human), UniProt P30542)" measured_value=7.04
molecule="Cc1cc(-c2sc(NC(=O)N3CCN[C@H](C(F)(F)F)C3)nc2-c2cccc(C#N)c2)cc(C)n1 [Example 13.10]" tested_system="human Adenosine A1 receptor (Homo sapiens (Human), UniProt P30542)" measured_value=7.21

Now for the molecule whose pKi we want.
Per the records, this molecule ( Cc1cc(-c2sc(NC(=O)N3CCNC[C@@H]3CO)nc2-c2cccc(C#N)c2)cc(C)n1 [Example 13.5] ) has pKi equal to 7.08

* * *

# Tested System: human Adenosine A1 receptor (Homo sapiens (Human))
# Assay Comment: Adenosine receptor TR-FRET binding assay (A1)
# Test Context: inhibition of binding of 100 nM CA200645, CHO cell membranes
I'd appreciate it if you could supply Ki values for the items below.
Numbers only, in nM.

compound="Cc1cc(-c2sc(NC(=O)N3CCCC3CC(C)(C)O)nc2-c2cccc(C#N)c2)cc(Cl)n1 (centres unmarked)" value_unit=nM measured_value=136
compound=Cc1cc(-c2sc(NC(=O)N3CCC(N)(C#N)CC3)nc2-c2cccc(C#N)c2)cc(C)n1 value_unit=nM measured_value=8
compound=CC(C)(O)c1cc(-c2sc(NC(=O)N3CC4(COC4)C3)nc2-c2cccc(C#N)c2)cc(Cl)n1 value_unit=nM measured_value=9
compound=COCc1cc(-c2sc(NC(=O)N3CC4(COC4)C3)nc2-c2cccc(C#N)c2)cc(C)n1 value_unit=nM measured_value=29

Now for the compound whose Ki we want.
Field Ki (system: human Adenosine A1 receptor (Homo sapiens (Human))) for entry Cc1cc(-c2sc(NC(=O)N3CCN(CCO)CC3)nc2-c2cccc(C#N)c2)cc(C)n1 = 187

* * *

I'd appreciate it if you could supply pKi values for the items below.
# Tested System: human Adenosine A1 receptor (Homo sapiens (Human), UniProt P30542)
# Assay Comment: Adenosine receptor TR-FRET binding assay (A1)
# Test Context: inhibition of binding of 100 nM CA200645, CHO cell membranes
Where a name gives a salt, the structure may show the parent alone.
Numbers only, as −log10 of the molar value.

molecule="Cc1cc(-c2sc(NC(=O)N3C[C@@H]4NCCO[C@H]4C3)nc2-c2cccc(C#N)c2)cc(C(F)F)n1 (racemic)" tested_system="human Adenosine A1 receptor (Homo sapiens (Human), UniProt P30542)" measurement_kind=pKi measured_value=7.39
molecule=COc1cc(-c2sc(NC(=O)N3CCS(=N)(=O)CC3)nc2-c2cccc(C#N)c2)cc(C)n1 tested_system="human Adenosine A1 receptor (Homo sapiens (Human), UniProt P30542)" measurement_kind=pKi measured_value=7.26
molecule=Cc1cc(-c2sc(NC(=O)N3CC4(COC4)C3)nc2-c2cccc(C#N)c2)cc(C2COC2)n1 tested_system="human Adenosine A1 receptor (Homo sapiens (Human), UniProt P30542)" measurement_kind=pKi measured_value=7.92
molecule="Cc1cc(-c2sc(NC(=O)N3CCN(C4CCOCC4)CC3)nc2-c2cccc(C#N)c2)cc(C)n1 [Example 6.113, diformate salt]" tested_system="human Adenosine A1 receptor (Homo sapiens (Human), UniProt P30542)" measurement_kind=pKi measured_value=6.44

Field pKi (system: human Adenosine A1 receptor (Homo sapiens (Human), UniProt P30542)) for entry Cc1cc(-c2sc(NC(=O)N3CCN[C@H](C(N)=O)C3)nc2-c2cccc(C#N)c2)cc(Cl)n1 = 7.47

* * *

I'd appreciate it if you could supply Ki values for the items below.
# Tested System: human Adenosine A2a receptor (Homo sapiens (Human))
# Sequence (P29274 whole entry): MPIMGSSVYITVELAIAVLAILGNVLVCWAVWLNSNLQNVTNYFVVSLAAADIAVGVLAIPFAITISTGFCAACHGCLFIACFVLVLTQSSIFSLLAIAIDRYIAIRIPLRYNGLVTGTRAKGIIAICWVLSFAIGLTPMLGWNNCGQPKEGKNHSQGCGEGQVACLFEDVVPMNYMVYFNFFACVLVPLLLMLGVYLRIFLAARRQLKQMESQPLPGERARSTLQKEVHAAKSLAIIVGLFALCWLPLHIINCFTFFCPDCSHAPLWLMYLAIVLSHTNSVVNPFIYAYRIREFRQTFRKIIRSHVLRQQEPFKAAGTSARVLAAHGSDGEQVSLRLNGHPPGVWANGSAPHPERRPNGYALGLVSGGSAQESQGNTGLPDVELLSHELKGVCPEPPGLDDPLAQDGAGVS
# Assay Comment: Adenosine receptor TR-FRET binding assay (A2a)
# Test Context: inhibition of binding of 100 nM CA200645, CHO cell membranes
Give bare numbers, in nM.

molecule="Cc1cc(-c2sc(NC(=O)N3CCC(C(C)(C)O)C3)nc2-c2cccc(C#N)c2)cc(Cl)n1 (stereo not shown)" measured_value=0.4
molecule=Cc1cc(-c2sc(NC(=O)N3CCN[C@H](C(C)(C)O)C3)nc2-c2cccc(C#N)c2)cc(C)n1 measured_value=0.81
molecule=Cc1cc(-c2sc(NC(=O)N3CCN(C)CC3)nc2-c2cccc(C#N)c2)cc(C)n1 measured_value=1.01

Now for the molecule whose Ki we want.
Per the records, this molecule ( Cc1cc(-c2sc(NC(=O)N3CC4CC(C3)N4)nc2-c2cccc(C#N)c2)cc(C)n1 ) has Ki equal to 7.46

* * *

# Tested System: UniProt P30542
# Assay Comment: Adenosine receptor TR-FRET binding assay (A1)
# Test Context: inhibition of binding of 100 nM CA200645, CHO cell membranes
pKi: −log10 of the molar value.
Record Satisfied whenever pKi is at 7 or higher; record Not satisfied when lower.

compound="Cc1cc(-c2sc(NC(=O)N3CCN(CCO)C(=O)C3)nc2-c2cccc(C#N)c2)cc(C)n1 [Example 4.31]" category="Not satisfied"
compound="COCC1(C#N)CCN(C(=O)Nc2nc(-c3cccc(C#N)c3)c(-c3cc(C)nc(C)c3)s2)CC1 [Example 4.6]" category=Satisfied
compound="Cc1cc(-c2sc(NC(=O)N3CCC(c4ncon4)CC3)nc2-c2cccc(C#N)c2)cc(C)n1 [Example 6.22]" category=Satisfied

-- ask I'd appreciate it if you could say whether Cc1cc(-c2sc(NC(=O)N3CCN4CCOCC4C3)nc2-c2cccc(C#N)c2)cc(C)n1 (centres unmarked) [Example 4.11] has pKi at least equal to 7.
-- reply Not satisfied

-- ask I'd appreciate it if you could say whether Cc1cc(-c2sc(NC(=O)N3CCC4(CC3)CNC4=O)nc2-c2cccc(C#N)c2)cc(C)n1 [Example 6.20] has pKi at least equal to 7.
-- reply Satisfied

-- ask I'd appreciate it if you could say whether Cc1cc(-c2sc(NC(=O)N3CCN4CCNC(=O)C4C3)nc2-c2cccc(C#N)c2)cc(C)n1 (centres unmarked) [Example 6.16] has pKi at least equal to 7.
-- reply Not satisfied

-- ask I'd appreciate it if you could say whether Cc1cc(-c2sc(NC(=O)N3CCC34COC4)nc2-c2cccc(C#N)c2)cc(C)n1 [Example 6.87] has pKi at least equal to 7.
-- reply Satisfied

-- ask I'd appreciate it if you could say whether Cc1cc(-c2sc(NC(=O)N3CCN4C(=O)CCCC4C3)nc2-c2cccc(C#N)c2)cc(C)n1 (centres unmarked) [Example 6.43] has pKi at least equal to 7.
-- reply Satisfied

-- ask I'd appreciate it if you could say whether Cc1cc(-c2sc(NC(=O)N3CC[C@@H](C(N)=O)C3)nc2-c2cccc(C#N)c2)cc(C)n1 [Example 6.8] has pKi at least equal to 7.
-- reply Satisfied

-- ask I'd appreciate it if you could say whether Cc1cc(-c2sc(NC(=O)N3CCC(C)(O)CC3)nc2-c2cccc(C#N)c2)cc(C)n1 [Example 6.96] has pKi at least equal to 7.
-- reply Satisfied

-- ask I'd appreciate it if you could say whether Cc1cc(-c2sc(NC(=O)N3CCC(C)(C#N)CC3)nc2-c2cccc(C#N)c2)cc(C)n1 [Example 6] has pKi at least equal to 7.
-- reply Satisfied

-- ask I'd appreciate it if you could say whether Cc1cc(-c2sc(NC(=O)N3CCO[C@@H](CO)C3)nc2-c2cccc(C#N)c2)cc(C)n1 [Example 4.16] has pKi at least equal to 7.
-- reply Satisfied

-- ask I'd appreciate it if you could say whether Cc1cc(-c2sc(NC(=O)N3CC4(COC4)C3)nc2-c2cccc(C#N)c2)cc([C@@H](C)O)n1 (single isomer, unassigned) [Example 12.3b] has pKi at least equal to 7.
-- reply Satisfied

-- ask I'd appreciate it if you could say whether Cc1cc(-c2sc(NC(=O)N3CCN[C@H](C)C3)nc2-c2cccc(C#N)c2)cc(C)n1 [Example 7.1] has pKi at least equal to 7.
-- reply Satisfied

-- ask I'd appreciate it if you could say whether Cc1cc(-c2sc(NC(=O)N3CCC4(CNCCO4)C3)nc2-c2cccc(C#N)c2)cc(C(F)F)n1 (centres unmarked) [Example 6.108] has pKi at least equal to 7.
-- reply Satisfied

-- ask I'd appreciate it if you could say whether Cc1cc(-c2sc(NC(=O)N3CCNC[C@@H]3C)nc2-c2cccc(C#N)c2)cc(C)n1 [Example 13.4] has pKi at least equal to 7.
-- reply Satisfied

-- ask I'd appreciate it if you could say whether CCc1cc(-c2sc(NC(=O)N3CC4(COC4)C3)nc2-c2cccc(C#N)c2)cc(C)n1 [Example 16.9] has pKi at least equal to 7.
-- reply Satisfied

-- ask I'd appreciate it if you could say whether Cc1cc(-c2sc(NC(=O)N3CCC(S(N)(=O)=O)C3)nc2-c2cccc(C#N)c2)cc(C)n1 (centres unmarked) [Example 6.2] has pKi at least equal to 7.
-- reply Satisfied
